target: T1, human CD33 Fc fusion protein (human, UniProt P20138 18-259); experiment: RBC adhesion to plate-bound CD33-Fc; antibody 0.5 ug/ml;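 note: Plate-coated CD33-Fc preincubated 1 h with antibody, then red blood cells added for 1 h at room temperature, adherent cells lysed and quantified via peroxidase activity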
T1 construct: also called hCD33-Fc; human CD33/Fc chimera (R&D Systems)
T1 sequence (P20138 18-259 limits assumed): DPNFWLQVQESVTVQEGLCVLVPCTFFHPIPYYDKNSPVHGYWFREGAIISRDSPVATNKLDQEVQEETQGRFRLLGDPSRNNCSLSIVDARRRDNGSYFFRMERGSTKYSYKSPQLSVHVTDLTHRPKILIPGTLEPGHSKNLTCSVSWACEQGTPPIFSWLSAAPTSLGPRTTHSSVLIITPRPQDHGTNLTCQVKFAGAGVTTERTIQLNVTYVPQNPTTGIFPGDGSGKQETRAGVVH
Parameter: Percent RBC Binding to CD33. Scope: all listed entries.
Reply with just the number (in %).

• C-23 (antibody, V domains shown, human IgG1) VH: QVQLQESGPGLVKPSETLSLTCAVSGYSISSGYYWGWIRQPPGKGLEWIGTIYHSGSTYYNPSLKSRVTISVDTSKNQFSLKLSSVTAADTAVYYCAREVGVVGALPYFDYWGQGTLVTVSS VL: DIQMTQSPSSLSASVGDRVTITCRASQSISSYLNWYQQKPGKAPKLLIYGASSLQSGVPSRFSGSGSGTDFTLTISSLQPEDFATYYCQQASSSPPTFGGGTKVEIK = 13.8
• C-63 (antibody, V domains shown, human IgG1) VH: QVQLVQSGAEVKKPGSSVKVSCKASGGTFSSYAISWVRQAPGQGLEWMGSIIPIFGTANYAQKFQGRVTITADESTSTAYMELSSLRSEDTAVYYCARDLGGQYYGSHHYWGQGTLVTVSS VL: EIVLTQSPATLSVSPGERATLSCRASQSVGSNLAWYQQKPGQAPRLLIYGASTRATGIPARFSGSGSGTEFTLTISSLQSEDFAVYYCQQYNAWPLTFGGGTKVEIK = 17.1

Please examine the following record next.
The binder listed as C-19 (antibody, V domains shown, human IgG1) VH: QLQLQESGPGLVKPSETLSLTCTVSGGSISSSSYAWGWIRQPPGKGLEWIGSIYYSGSTYYNPSLKSRVTISVDTSKNQFSLKLSSVTAADTAVYYCARVGYTRPYGMDVWGQGTTVTVSS VL: DIQMTQSPSSVSASVGDRVTITCRASQGISSWLAWYQQKPGKAPKLLIYAASSLQSGVPSRFSGSGSGTDFTLTISSLQPEDFATYYCQQINAHPTFGGGTKVEIK shows Percent RBC Binding to CD33 equal to 19.5
